System: 485176-168-R4-J1-PDC complex spheroid growth;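 also: spheroids exposed to compounds for seven days before readout; luminescence viability expressed relative to DMSO vehicle wells set as 100%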
Assay: Anticancer human tumor 485176-168-R4-J1-PDC patient-derived pancreatic adenocarcinoma cell line growth inhibition [RAS]
Settings: second compound 0.0316 µM; first compound 0.1 µM; hits give low values
VALUE_TYPE: viability, T/C

>  <MOLECULE>
Nc1ccn(C2OC(CO)C(O)C2(F)F)c(=O)n1 (stereo not given) + C#Cc1c(F)ccc2cc(O)cc(-c3ncc4c(N5CC6CCC(C5)N6)nc(OCC56CCCN5CC(F)C6)nc4c3F)c12

>  <viability, T/C>
8.52%

$$$$
>  <MOLECULE>
C=CC(=O)N1CCN(c2nc(OCC3CCCN3C)nc3c(F)c(-c4nc(N)cc(C)c4C(F)(F)F)c(Cl)cc23)C(C)C1 (stereo not given) + C#Cc1c(F)ccc2cc(O)cc(-c3ncc4c(N5CC6CCC(C5)N6)nc(OCC56CCCN5CC(F)C6)nc4c3F)c12

>  <viability, T/C>
105%

$$$$
>  <MOLECULE>
CC(C)n1nc(-c2ccc3oc(N)nc3c2)c2c(N)ncnc21 + C=CC(=O)N1CCN(c2nc(OCC3CCCN3C)nc3c(F)c(-c4nc(N)cc(C)c4C(F)(F)F)c(Cl)cc23)C(C)C1

>  <viability, T/C>
23.8%

$$$$

Provide reported viability, T/C for each item, in the same order as listed.
1. CCN1CCN(Cc2ccc(Nc3ncc(F)c(-c4cc(F)c5nc(C)n(C(C)C)c5c4)n3)nc2)CC1 + C=CC(=O)N1CCN(c2nc(OCC3CCCN3C)nc3c(F)c(-c4nc(N)cc(C)c4C(F)(F)F)c(Cl)cc23)C(C)C1
2. CCC(CC)c1cc(NC2CCC(N)C2)n2nccc2n1 (stereo not given) + C#Cc1c(F)ccc2cc(O)cc(-c3ncc4c(N5CC6CCC(C5)N6)nc(OCC56CCCN5CC(F)C6)nc4c3F)c12

["80.5%", "80.2%"]

Each recorded value in this set is attributed to PubChem BioAssay AID2060906.
